Every entry's value here was drawn from ChEMBL document CHEMBL1240503.

target: Prostaglandin G/H synthase 1 (Ovis aries, UniProt P05979); assay: Inhibition of ovine COX1 by chemiluminescence assay
Sequence (P05979 whole entry): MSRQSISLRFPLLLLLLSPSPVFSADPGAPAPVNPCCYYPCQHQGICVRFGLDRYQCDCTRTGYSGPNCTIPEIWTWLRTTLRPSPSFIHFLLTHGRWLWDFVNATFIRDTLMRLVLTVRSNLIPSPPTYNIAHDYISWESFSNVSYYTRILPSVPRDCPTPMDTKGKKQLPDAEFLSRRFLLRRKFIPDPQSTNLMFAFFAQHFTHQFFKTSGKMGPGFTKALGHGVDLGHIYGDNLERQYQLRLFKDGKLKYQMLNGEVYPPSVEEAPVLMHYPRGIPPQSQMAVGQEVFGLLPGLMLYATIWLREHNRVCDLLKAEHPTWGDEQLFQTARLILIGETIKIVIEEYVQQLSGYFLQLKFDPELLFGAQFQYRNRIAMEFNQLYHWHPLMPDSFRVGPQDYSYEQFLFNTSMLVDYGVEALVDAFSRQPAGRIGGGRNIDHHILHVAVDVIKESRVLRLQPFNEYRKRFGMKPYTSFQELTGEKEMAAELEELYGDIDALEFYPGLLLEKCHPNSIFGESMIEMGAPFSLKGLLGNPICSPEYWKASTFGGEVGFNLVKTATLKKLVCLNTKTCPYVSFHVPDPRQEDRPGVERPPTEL
VALUE TYPE: IC50 (µM)

- SMILES ENTRY: "CS(=O)(=O)c1ccc(C(=O)/C(=C/c2ccc(O)cc2)c2ccccc2)cc1"
  TEST SYSTEM: "Prostaglandin G/H synthase 1 (Ovis aries, UniProt P05979)"
  UNITS OF MEASURE: "µM"
  TEST VALUE: 14.4
- SMILES ENTRY: "CS(=O)(=O)c1ccc(C(=O)/C(=C\\c2ccc(F)cc2)c2ccccc2)cc1"
  TEST SYSTEM: "Prostaglandin G/H synthase 1 (Ovis aries, UniProt P05979)"
  UNITS OF MEASURE: "µM"
  TEST VALUE: 30.9
- SMILES ENTRY: "COc1ccc(/C=C(\\C(=O)c2ccc(S(C)(=O)=O)cc2)c2ccccc2)cc1"
  TEST SYSTEM: "Prostaglandin G/H synthase 1 (Ovis aries, UniProt P05979)"
  UNITS OF MEASURE: "µM"
  TEST VALUE: 18.4
- SMILES ENTRY: "CS(=O)(=O)c1ccc(C(=O)/C(=C/c2ccccc2)c2ccccc2)cc1"
  TEST SYSTEM: "Prostaglandin G/H synthase 1 (Ovis aries, UniProt P05979)"
  UNITS OF MEASURE: "µM"
  TEST VALUE: 13.3
- SMILES ENTRY: "CS(=O)(=O)c1ccc(C(=O)/C(=C\\c2ccccc2)c2ccccc2)cc1"
  TEST SYSTEM: "Prostaglandin G/H synthase 1 (Ovis aries, UniProt P05979)"
  UNITS OF MEASURE: "µM"
  TEST VALUE: 14.3
